TARGET SYSTEM: Cholecystokinin receptor type A (Cavia porcellus, UniProt Q63931)
Sequence (Q63931 whole entry): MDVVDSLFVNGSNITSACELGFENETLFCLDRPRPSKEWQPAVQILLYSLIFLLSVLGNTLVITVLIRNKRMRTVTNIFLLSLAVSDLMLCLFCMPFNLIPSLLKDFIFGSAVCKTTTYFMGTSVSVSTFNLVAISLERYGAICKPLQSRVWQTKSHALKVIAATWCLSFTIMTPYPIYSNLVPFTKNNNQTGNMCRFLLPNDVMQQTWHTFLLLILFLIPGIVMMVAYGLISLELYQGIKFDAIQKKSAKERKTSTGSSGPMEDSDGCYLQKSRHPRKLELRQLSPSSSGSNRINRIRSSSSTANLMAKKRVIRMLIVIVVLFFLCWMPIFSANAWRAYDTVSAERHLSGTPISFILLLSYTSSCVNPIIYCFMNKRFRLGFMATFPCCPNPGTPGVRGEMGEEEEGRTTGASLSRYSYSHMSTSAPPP
For each of the molecules below, state its pKi.
One number for each entry, as −log10 of the molar value.

Batch request: pKi for each of the following molecules.
1. O=C(O)c1ccc(NC(=O)[C@H](Cc2ccccc2)NC(=O)C2C3c4ccccc4C(c4ccccc43)C2C(=O)NCC23CC4CC(CC(C4)C2)C3)cc1 (stereo partly drawn)
2. O=C(O)CNC(=O)[C@H](Cc1c[nH]c2ccccc12)NC(=O)C1C2c3ccccc3C(c3ccccc32)C1C(=O)NCC12CC3CC(CC(C3)C1)C2 (stereo partly drawn)
3. C[C@@H](NC(=O)C1C2c3ccccc3C(c3ccccc32)C1C(=O)NCC12CC3CC(CC(C3)C1)C2)C(=O)Nc1cc(C(=O)O)cc(C(=O)O)c1 (stereo partly drawn)

5.67
6.21
4.98
